// provenance: ChEMBL document CHEMBL1949658

- System name: Neuronal acetylcholine receptor; alpha3/beta4 (Homo sapiens, UniProt P30926+P32297)
- Sequence (P30926 whole entry): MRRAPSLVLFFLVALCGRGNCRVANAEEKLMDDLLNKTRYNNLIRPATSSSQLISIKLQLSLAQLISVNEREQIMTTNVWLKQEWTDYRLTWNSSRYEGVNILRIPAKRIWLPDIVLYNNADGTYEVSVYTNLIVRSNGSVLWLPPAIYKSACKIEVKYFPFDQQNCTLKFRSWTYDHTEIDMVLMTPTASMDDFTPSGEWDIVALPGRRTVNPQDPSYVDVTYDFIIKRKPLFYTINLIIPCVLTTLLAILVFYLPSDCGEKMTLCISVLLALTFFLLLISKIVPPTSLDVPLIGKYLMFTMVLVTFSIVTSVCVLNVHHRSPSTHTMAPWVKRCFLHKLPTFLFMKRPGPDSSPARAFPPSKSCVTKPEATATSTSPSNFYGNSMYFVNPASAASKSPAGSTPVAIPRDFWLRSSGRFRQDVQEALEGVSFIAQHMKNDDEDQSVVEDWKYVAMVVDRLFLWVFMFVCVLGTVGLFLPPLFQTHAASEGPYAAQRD
- Sequence (P32297 whole entry): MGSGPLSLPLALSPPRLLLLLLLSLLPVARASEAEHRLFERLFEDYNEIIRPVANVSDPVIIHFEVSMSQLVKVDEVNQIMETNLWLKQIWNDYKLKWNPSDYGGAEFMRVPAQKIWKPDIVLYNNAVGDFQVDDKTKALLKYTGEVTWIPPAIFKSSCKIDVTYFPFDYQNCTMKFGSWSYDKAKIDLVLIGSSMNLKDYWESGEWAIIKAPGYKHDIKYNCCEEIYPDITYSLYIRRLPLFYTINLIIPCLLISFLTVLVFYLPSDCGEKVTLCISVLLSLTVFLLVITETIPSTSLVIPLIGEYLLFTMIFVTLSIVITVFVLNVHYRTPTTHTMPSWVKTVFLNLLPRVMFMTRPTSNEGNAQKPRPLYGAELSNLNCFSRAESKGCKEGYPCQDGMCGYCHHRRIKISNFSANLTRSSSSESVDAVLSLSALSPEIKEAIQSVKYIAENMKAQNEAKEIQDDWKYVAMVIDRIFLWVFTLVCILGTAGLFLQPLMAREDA
- Experimental details: Antagonist activity at human nAChR alpha3/beta4 receptor expressed in HEK ts201 cells assessed as calcium accumulation by fluorescence analysis
- Format: functional, cell-based
- Stated conditions: read-out: pIC50 (converted)
Binary label based on IC50 with cut-off 10 µM: below gives rule met, not below gives rule not met.

[
  {
    "Compound": "O=C(OCC1CCCN(CCCc2ccccc2)C1)c1ccccc1-n1cc(-c2ccccc2)nn1 (single isomer, unassigned)",
    "System name": "Neuronal acetylcholine receptor; alpha3/beta4 (Homo sapiens, UniProt P30926+P32297)",
    "Assigned class": "rule met"
  },
  {
    "Compound": "COc1ccc(OCCCCCN2CCCC(COC(=O)c3ccccc3-c3ccccc3)C2)cc1 (stereo not drawn)",
    "System name": "Neuronal acetylcholine receptor; alpha3/beta4 (Homo sapiens, UniProt P30926+P32297)",
    "Assigned class": "rule not met"
  },
  {
    "Compound": "COc1ccc(CC2CC(=O)N(c3ccccc3C(=O)OCC3CCCN(CCCc4ccccc4)C3)C2=O)cc1 (stereo not drawn)",
    "System name": "Neuronal acetylcholine receptor; alpha3/beta4 (Homo sapiens, UniProt P30926+P32297)",
    "Assigned class": "rule not met"
  },
  {
    "Compound": "COc1ccc(OCCCCCN2CCCC(COC(=O)c3ccccc3N3C(=O)CC(C)C3=O)C2)cc1OC (stereo not drawn)",
    "System name": "Neuronal acetylcholine receptor; alpha3/beta4 (Homo sapiens, UniProt P30926+P32297)",
    "Assigned class": "rule not met"
  },
  {
    "Compound": "C[C@@H]1CC(=O)N(c2ccccc2C(=O)OC[C@@H]2CCCN(CCCc3ccccc3)C2)C1=O",
    "System name": "Neuronal acetylcholine receptor; alpha3/beta4 (Homo sapiens, UniProt P30926+P32297)",
    "Assigned class": "rule met"
  },
  {
    "Compound": "CCN1CC(OC(=O)c2ccccc2N2C(=O)CC(C)C2=O)C2CC1C1OC(C)(C)OC21 (stereo not drawn)",
    "System name": "Neuronal acetylcholine receptor; alpha3/beta4 (Homo sapiens, UniProt P30926+P32297)",
    "Assigned class": "rule not met"
  },
  {
    "Compound": "CC1CC(=O)N(c2ccccc2C(=O)OCC2CCCN(CCCCCOc3ccc(Cl)c(Cl)c3)C2)C1=O (stereo not drawn)",
    "System name": "Neuronal acetylcholine receptor; alpha3/beta4 (Homo sapiens, UniProt P30926+P32297)",
    "Assigned class": "rule met"
  },
  {
    "Compound": "CC1CC(=O)N(c2ccccc2C(=O)OCC2CCCN(CCOc3ccc(Cl)c(Cl)c3)C2)C1=O (stereo not drawn)",
    "System name": "Neuronal acetylcholine receptor; alpha3/beta4 (Homo sapiens, UniProt P30926+P32297)",
    "Assigned class": "rule not met"
  }
]

---

- Experimental details: Lipophilicity, log P of the compound
- Type: physicochemical
- Stated conditions: octanol/water

[
  {
    "Compound": "O=C(NCc1cccc2ccccc12)c1ccccc1-c1ccccc1",
    "logP": 5
  },
  {
    "Compound": "O=C(OCC1CCCN(CCCc2ccccc2)C1)c1ccccc1-c1ccccc1 (configuration not stated)",
    "logP": 5.9
  }
]
